- test-details: biodistribution in A431-CCK2R/A431-mock xenografted BALB/c nude mice
- Format: in vivo
- assay-context: female, athymic BALB/c nude, mouse, spleen, iv, 20 pmol, total radioactivity, 20 pmol, 12 h p.i.; read-out: uptake in spleen
Non-standard residues stand in square brackets, D forms with d. Residues, ends and D or L forms follow the SMILES beside them. *: point of attachment. DOTA = O=C(O)CN1CCN(CC(=O)O)CCN(CC(=O)*)CCN(CC(=O)O)CC1; 1Nal = N[C@@H](Cc1cccc2ccccc12)C(=O)O; NMeNle = CCCC[C@H](NC)C(=O)O
metric-name: tissue uptake at 12 h (%ID/g)
Give your result in %ID/g as a bare value.

Briefly, tissue uptake at 12 h measured for CCCC[C@@H](C(=O)N[C@@H](CC(=O)O)C(=O)N[C@@H](Cc1cccc2ccccc12)C(N)=O)N(C)C(=O)[C@H](Cc1c[nH]c2ccccc12)NC(=O)CNC(=O)[C@@H]1CCCN1C(=O)[C@H](Cc1ccc(O)cc1)NC(=O)[C@@H](CCC(=O)O)NC(=O)CN1CCN(CC(=O)O)CCN(CC(=O)O)CCN(CC(=O)O)CC1 [[^177Lu]Lu-2, metal not drawn] ({DOTA}-[dE]YPGW[NMeNle]D[1Nal]-NH2) : 0.13

Summary for this compound, CCCC[C@@H](C(=O)N[C@@H](CC(=O)O)C(=O)N[C@@H](Cc1cccc2ccccc12)C(N)=O)N(C)C(=O)[C@H](Cc1c[nH]c2ccccc12)NC(=O)CNC(=O)[C@H](Cc1ccc(O)cc1)NC(=O)[C@@H]1CCCN1C(=O)[C@@H](CCC(=O)O)NC(=O)CN1CCN(CC(=O)O)CCN(CC(=O)O)CCN(CC(=O)O)CC1 [[^177Lu]Lu-1, metal not drawn] ({DOTA}-[dE]PYGW[NMeNle]D[1Nal]-NH2) : tissue uptake at 12 h is 0.13

###

- test-details: biodistribution in A431-CCK2R/A431-mock xenografted BALB/c nude mice
- Assay type: in vivo
- assay-context: female, athymic BALB/c nude, mouse, A431-mock xenograft tumor, iv, 20 pmol, total radioactivity, 20 pmol, 12 h p.i.; read-out: uptake in A431-mock xenografts
Non-standard residues stand in square brackets, D forms with d. Residues, ends and D or L forms follow the SMILES beside them. *: point of attachment. DOTA = O=C(O)CN1CCN(CC(=O)O)CCN(CC(=O)*)CCN(CC(=O)O)CC1; 1Nal = N[C@@H](Cc1cccc2ccccc12)C(=O)O; NMeNle = CCCC[C@H](NC)C(=O)O
metric-name: tissue uptake at 12 h (%ID/g)
Unit %ID/g implied. Number only.

molecule	unit-info	tissue uptake at 12 h
CCCC[C@@H](C(=O)N[C@@H](CC(=O)O)C(=O)N[C@@H](Cc1cccc2ccccc12)C(N)=O)N(C)C(=O)[C@H](Cc1c[nH]c2ccccc12)NC(=O)CNC(=O)[C@H](Cc1ccc(O)cc1)NC(=O)[C@@H]1CCCN1C(=O)[C@@H](CCC(=O)O)NC(=O)CN1CCN(CC(=O)O)CCN(CC(=O)O)CCN(CC(=O)O)CC1 [[^177Lu]Lu-1, metal not drawn] ({DOTA}-[dE]PYGW[NMeNle]D[1Nal]-NH2)	%ID/g	0.11

We next turn to a different molecule, shown below.
Sample CCCC[C@@H](C(=O)N[C@@H](CC(=O)O)C(=O)N[C@@H](Cc1cccc2ccccc12)C(N)=O)N(C)C(=O)[C@H](Cc1c[nH]c2ccccc12)NC(=O)CNC(=O)[C@@H]1CCCN1C(=O)[C@H](Cc1ccc(O)cc1)NC(=O)[C@@H](CCC(=O)O)NC(=O)CN1CCN(CC(=O)O)CCN(CC(=O)O)CCN(CC(=O)O)CC1 [[^177Lu]Lu-2, metal not drawn] ({DOTA}-[dE]YPGW[NMeNle]D[1Nal]-NH2) ; tissue uptake at 12 h observed: 0.15

###

- test-details: biodistribution in A431-CCK2R/A431-mock xenografted BALB/c nude mice
- Assay type: in vivo
- assay-context: female, athymic BALB/c nude, mouse, liver, iv, 20 pmol, total radioactivity, 20 pmol, 12 h p.i.; read-out: uptake in liver
Non-standard residues stand in square brackets, D forms with d. Residues, ends and D or L forms follow the SMILES beside them. *: point of attachment. DOTA = O=C(O)CN1CCN(CC(=O)O)CCN(CC(=O)*)CCN(CC(=O)O)CC1; 1Nal = N[C@@H](Cc1cccc2ccccc12)C(=O)O; NMeNle = CCCC[C@H](NC)C(=O)O
Reported tissue uptake at 12 h values for the following compounds.
Return type: number; implicit unit %ID/g.

compound	metric-name	unit-info	data-value
CCCC[C@@H](C(=O)N[C@@H](CC(=O)O)C(=O)N[C@@H](Cc1cccc2ccccc12)C(N)=O)N(C)C(=O)[C@H](Cc1c[nH]c2ccccc12)NC(=O)CNC(=O)[C@@H]1CCCN1C(=O)[C@H](Cc1ccc(O)cc1)NC(=O)[C@@H](CCC(=O)O)NC(=O)CN1CCN(CC(=O)O)CCN(CC(=O)O)CCN(CC(=O)O)CC1 [[^177Lu]Lu-2, metal not drawn] ({DOTA}-[dE]YPGW[NMeNle]D[1Nal]-NH2)	tissue uptake at 12 h	%ID/g	0.27

We now examine a further compound.
Sample CCCC[C@@H](C(=O)N[C@@H](CC(=O)O)C(=O)N[C@@H](Cc1cccc2ccccc12)C(N)=O)N(C)C(=O)[C@H](Cc1c[nH]c2ccccc12)NC(=O)CNC(=O)[C@H](Cc1ccc(O)cc1)NC(=O)[C@@H]1CCCN1C(=O)[C@@H](CCC(=O)O)NC(=O)CN1CCN(CC(=O)O)CCN(CC(=O)O)CCN(CC(=O)O)CC1 [[^177Lu]Lu-1, metal not drawn] ({DOTA}-[dE]PYGW[NMeNle]D[1Nal]-NH2) ; tissue uptake at 12 h observed: 0.32

###

Quick reference for fraction unbound among some molecules
- test-details: protein binding in human serum (Sephadex G-50 size-exclusion chromatography)
- Assay type: in vitro ADME
- assay-context: 4 h after incubation, read-out: protein binding (%) 4 h (converted)
Non-standard residues stand in square brackets, D forms with d. Residues, ends and D or L forms follow the SMILES beside them. *: point of attachment. DOTA = O=C(O)CN1CCN(CC(=O)O)CCN(CC(=O)*)CCN(CC(=O)O)CC1; 1Nal = N[C@@H](Cc1cccc2ccccc12)C(=O)O; NMeNle = CCCC[C@H](NC)C(=O)O
Number only, no unit.

Guide cases for fraction unbound, answers given:
molecule	fraction unbound
CCCC[C@@H](C(=O)N[C@@H](CC(=O)O)C(=O)N[C@@H](Cc1cccc2ccccc12)C(N)=O)N(C)C(=O)[C@H](Cc1c[nH]c2ccccc12)NC(=O)[C@@H]1CCCN1C(=O)[C@H](Cc1ccc(O)cc1)NC(=O)[C@H](C)NC(=O)[C@@H](CCC(=O)O)NC(=O)CN1CCN(CC(=O)O)CCN(CC(=O)O)CCN(CC(=O)O)CC1 [[^111In]In-3, metal not drawn] ({DOTA}-[dE]AYPW[NMeNle]D[1Nal]-NH2)	0.588
CCCC[C@@H](C(=O)N[C@@H](CC(=O)O)C(=O)N[C@@H](Cc1cccc2ccccc12)C(N)=O)N(C)C(=O)[C@H](Cc1c[nH]c2ccccc12)NC(=O)CNC(=O)[C@@H]1CCCN1C(=O)[C@H](Cc1ccc(O)cc1)NC(=O)[C@@H](CCC(=O)O)NC(=O)CN1CCN(CC(=O)O)CCN(CC(=O)O)CCN(CC(=O)O)CC1 [[^111In]In-2, metal not drawn] ({DOTA}-[dE]YPGW[NMeNle]D[1Nal]-NH2)	0.432

What the record says about CCCC[C@@H](C(=O)N[C@@H](CC(=O)O)C(=O)N[C@@H](Cc1cccc2ccccc12)C(N)=O)N(C)C(=O)[C@H](Cc1c[nH]c2ccccc12)NC(=O)CNC(=O)[C@H](Cc1ccc(O)cc1)NC(=O)[C@@H]1CCCN1C(=O)[C@@H](CCC(=O)O)NC(=O)CN1CCN(CC(=O)O)CCN(CC(=O)O)CCN(CC(=O)O)CC1 [[^111In]In-1, metal not drawn] ({DOTA}-[dE]PYGW[NMeNle]D[1Nal]-NH2) : fraction unbound is 0.555

###

Recorded tissue uptake at 4 h for the following compounds
- test-details: biodistribution in A431-CCK2R/A431-mock xenografted BALB/c nude mice
- Format: in vivo
- assay-context: female, athymic BALB/c nude, mouse, pancreas, iv, 20 pmol, total radioactivity, 20 pmol, 4 h p.i.; read-out: uptake in pancreas
Non-standard residues stand in square brackets, D forms with d. Residues, ends and D or L forms follow the SMILES beside them. *: point of attachment. DOTA = O=C(O)CN1CCN(CC(=O)O)CCN(CC(=O)*)CCN(CC(=O)O)CC1; 1Nal = N[C@@H](Cc1cccc2ccccc12)C(=O)O; NMeNle = CCCC[C@H](NC)C(=O)O

compound	tissue uptake at 4 h
CCCC[C@@H](C(=O)N[C@@H](CC(=O)O)C(=O)N[C@@H](Cc1cccc2ccccc12)C(N)=O)N(C)C(=O)[C@H](Cc1c[nH]c2ccccc12)NC(=O)CNC(=O)[C@@H]1CCCN1C(=O)[C@H](Cc1ccc(O)cc1)NC(=O)[C@@H](CCC(=O)O)NC(=O)CN1CCN(CC(=O)O)CCN(CC(=O)O)CCN(CC(=O)O)CC1 [[^177Lu]Lu-2, metal not drawn] ({DOTA}-[dE]YPGW[NMeNle]D[1Nal]-NH2)	1.21 %ID/g
CCCC[C@@H](C(=O)N[C@@H](CC(=O)O)C(=O)N[C@@H](Cc1cccc2ccccc12)C(N)=O)N(C)C(=O)[C@H](Cc1c[nH]c2ccccc12)NC(=O)[C@@H]1CCCN1C(=O)[C@H](Cc1ccc(O)cc1)NC(=O)[C@H](C)NC(=O)[C@@H](CCC(=O)O)NC(=O)CN1CCN(CC(=O)O)CCN(CC(=O)O)CCN(CC(=O)O)CC1 [[^177Lu]Lu-3, metal not drawn] ({DOTA}-[dE]AYPW[NMeNle]D[1Nal]-NH2)	1.78 %ID/g

Then there is this compound:
Measured tissue uptake at 4 h of CCCC[C@@H](C(=O)N[C@@H](CC(=O)O)C(=O)N[C@@H](Cc1cccc2ccccc12)C(N)=O)N(C)C(=O)[C@H](Cc1c[nH]c2ccccc12)NC(=O)CNC(=O)[C@H](Cc1ccc(O)cc1)NC(=O)[C@@H]1CCCN1C(=O)[C@@H](CCC(=O)O)NC(=O)CN1CCN(CC(=O)O)CCN(CC(=O)O)CCN(CC(=O)O)CC1 [[^177Lu]Lu-1, metal not drawn] ({DOTA}-[dE]PYGW[NMeNle]D[1Nal]-NH2) : 2.09 %ID/g
